Test: In vitro inhibition of Collagen-induced platelet aggregation in canine platelet rich plasma
pIC50: −log10 of the molar value.
measured.attribute: pIC50

A. N=C(N)c1ccc(NC(=O)CCC(=O)NCCC(=O)O)cc1
B. N=C(N)c1ccc(NC(=O)CCC(=O)NC(CC(=O)O)c2ccccc2)cc1 (configuration not stated)
Of A and B , which shows the smaller pIC50 value? Reply briefly: the label of your chosen item. A

* * *

Target: Integrin alpha-IIb/beta-3 (Homo sapiens, UniProt P05106+P08514)
Sequence (P05106 27-788 limits assumed): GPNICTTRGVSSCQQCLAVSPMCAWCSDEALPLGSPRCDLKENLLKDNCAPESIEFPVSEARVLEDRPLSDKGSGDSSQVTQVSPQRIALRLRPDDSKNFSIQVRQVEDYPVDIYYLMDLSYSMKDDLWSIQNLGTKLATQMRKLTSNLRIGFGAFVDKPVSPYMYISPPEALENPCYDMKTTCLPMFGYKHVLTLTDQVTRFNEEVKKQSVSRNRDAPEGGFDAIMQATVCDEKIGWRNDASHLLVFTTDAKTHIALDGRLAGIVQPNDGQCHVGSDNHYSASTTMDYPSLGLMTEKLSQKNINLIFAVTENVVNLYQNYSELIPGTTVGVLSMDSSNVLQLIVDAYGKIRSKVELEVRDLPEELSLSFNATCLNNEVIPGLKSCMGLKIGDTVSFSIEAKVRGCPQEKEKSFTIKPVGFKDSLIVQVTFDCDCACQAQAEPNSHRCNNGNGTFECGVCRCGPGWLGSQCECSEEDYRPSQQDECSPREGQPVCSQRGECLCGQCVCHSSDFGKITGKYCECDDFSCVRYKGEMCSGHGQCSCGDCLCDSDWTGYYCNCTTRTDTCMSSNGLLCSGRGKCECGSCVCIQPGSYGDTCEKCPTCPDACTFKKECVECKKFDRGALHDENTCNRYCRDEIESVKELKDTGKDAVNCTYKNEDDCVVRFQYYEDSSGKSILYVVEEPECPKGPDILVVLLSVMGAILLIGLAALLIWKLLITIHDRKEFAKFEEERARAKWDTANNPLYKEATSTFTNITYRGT
Sequence (P08514 32-887 limits assumed): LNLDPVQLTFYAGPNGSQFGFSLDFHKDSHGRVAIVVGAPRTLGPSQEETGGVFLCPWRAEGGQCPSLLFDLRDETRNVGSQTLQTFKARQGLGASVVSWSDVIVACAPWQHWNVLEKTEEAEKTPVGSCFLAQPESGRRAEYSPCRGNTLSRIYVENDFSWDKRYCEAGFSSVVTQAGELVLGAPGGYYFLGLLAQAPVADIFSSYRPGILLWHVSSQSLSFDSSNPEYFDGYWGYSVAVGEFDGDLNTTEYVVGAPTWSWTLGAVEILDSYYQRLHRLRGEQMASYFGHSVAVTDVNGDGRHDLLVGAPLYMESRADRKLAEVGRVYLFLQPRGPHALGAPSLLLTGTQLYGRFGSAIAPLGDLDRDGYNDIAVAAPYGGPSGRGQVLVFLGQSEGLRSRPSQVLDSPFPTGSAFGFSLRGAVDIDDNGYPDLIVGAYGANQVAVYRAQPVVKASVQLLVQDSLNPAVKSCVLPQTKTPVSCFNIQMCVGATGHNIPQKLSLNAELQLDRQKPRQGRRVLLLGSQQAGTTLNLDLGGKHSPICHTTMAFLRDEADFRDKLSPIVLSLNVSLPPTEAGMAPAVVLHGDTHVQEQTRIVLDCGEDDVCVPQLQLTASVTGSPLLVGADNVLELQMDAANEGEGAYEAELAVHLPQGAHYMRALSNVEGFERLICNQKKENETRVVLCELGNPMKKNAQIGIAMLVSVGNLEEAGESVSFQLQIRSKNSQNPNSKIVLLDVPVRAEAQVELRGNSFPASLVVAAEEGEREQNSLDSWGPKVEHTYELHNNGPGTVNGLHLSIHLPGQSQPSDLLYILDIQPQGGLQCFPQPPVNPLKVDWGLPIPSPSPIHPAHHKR
Sequence (P08514 891-1039 limits assumed): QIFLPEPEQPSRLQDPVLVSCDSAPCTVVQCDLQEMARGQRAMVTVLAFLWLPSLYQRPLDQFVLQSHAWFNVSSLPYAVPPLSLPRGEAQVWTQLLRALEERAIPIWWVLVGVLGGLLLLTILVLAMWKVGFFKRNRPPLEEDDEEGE
Assay: In vitro binding affinity for FITC-labeled fibrinogen binding to alphaIIb-beta3 receptor of human platelets
pKi: −log10 of the molar value.
measured.attribute: pKi

I. O=C(O)CCNC(=O)CCC(=O)Nc1ccc2c(c1)CNC2
II. O=C(O)CC(NC(=O)CCC(=O)Nc1ccc2c(c1)CNC2)c1ccccc1 (configuration not stated)
Between I and II , which one shows the smaller pKi number? Refer to your chosen entry by its label in the reply. I

* * *

Target: Integrin alpha-IIb/beta-3 (Homo sapiens, UniProt P05106+P08514)
Test: In vitro inhibition of FITC-labeled fibrinogen binding to alphaIIb-beta3 receptor of human platelets
pIC50: −log10 of the molar value.
measured.attribute: pIC50

>  <compound>
O=C(O)CCNC(=O)CCC(=O)Nc1ccc2c(c1)CNC2

>  <pIC50>
8.00

$$$$
>  <compound>
O=C(O)CC(NC(=O)CCC(=O)Nc1ccc2c(c1)CNC2)c1ccccc1 (configuration not stated)

>  <pIC50>
8.08

$$$$
